Sourced from paper PMC9541320

Tested on: HeLa cells
ASSAY_INFO: Cell viability assay by AlamarBlue, HeLa cells
Assay type: cell-based
PARTICULARS: 72 h incubation at 37 °C in DMEM high glucose medium with 10 % FBS; read-out: Toxicity IC50 HeLa
Where no end group is shown, it is not given here.
ASSAY_ENDPOINT: IC50 (µM)
Numbers only, in µM.

What the record says about VNWKKILGKIIKVVK-NH2 [LL‐III, lasioglossin III] : IC50 is 6
